# subject of test: human FXa (Homo sapiens, UniProt P00742)
# Sequence (P00742 235-488 limits assumed): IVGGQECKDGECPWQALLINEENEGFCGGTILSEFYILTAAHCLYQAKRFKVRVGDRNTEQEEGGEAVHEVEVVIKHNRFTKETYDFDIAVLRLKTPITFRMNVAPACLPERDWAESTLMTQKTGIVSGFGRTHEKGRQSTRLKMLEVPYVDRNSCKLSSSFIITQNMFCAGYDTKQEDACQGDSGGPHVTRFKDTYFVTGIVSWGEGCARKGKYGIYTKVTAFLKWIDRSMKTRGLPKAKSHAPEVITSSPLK
# Sequence (P00742 41-179 partner limits assumed): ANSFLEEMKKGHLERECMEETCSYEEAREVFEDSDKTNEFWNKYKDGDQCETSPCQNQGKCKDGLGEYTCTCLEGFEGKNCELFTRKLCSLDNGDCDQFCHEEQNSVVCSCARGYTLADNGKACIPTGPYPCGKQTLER
# experimental details: Determination of related protease inhibition: FXa
# Type: biochemical
# condition summary: fluorogenic substrate at Km concentration, 25 °C; read-out: IC50 (human FXa)
# Method: In vitro inhibition of related proteases was determined using an IC50 assay based on standard literature methods (see e.g. Shori et al., Biochem. Pharmacol., 1992,43, 1209; Bouckaert et al., European Journal of Medicinal Chemistry 110 (2016) 181). […] Protease activity was measured by monitoring the accumulation of liberated fluorescence from the substrate over 5 min at 25 °C. The linear rate of fluorescence increase per minute was expressed as percentage (%) activity. […]
pIC50: −log10 of the molar value.
observed property: pIC50

{"given smiles": "Cn1ccc(OCC23CN(C(=O)CC4CCCCC4)C(CNc4cccc5c(N)nccc45)(C2)C3)cc1=O", "pIC50": "4.40 to 5.00"}

Proceeding to the next compound to report its pIC50.
Which value of pIC50 has been reported for Cc1cc(OCC23CN(C(=O)C4CC5(CCOCC5)C4)C(CNc4cccc5c(N)nccc45)(C2)C3)cc(=O)n1C in the records?
4.40 to 5.00
